Protocol Text: Cytotoxicity in mock-infected MT-4 cells (MTT method)
Assay type: cell-based
Run Conditions: human; MT-4, MTT method
Observable: CC50 at 4 days (µM)
Just the number please, in µM, no unit attached.

input: Specify measured CC50 at 4 days for O=C1Nc2ccc(Cl)cc2[C@@](C#CC2CC2)(C(F)(F)F)O1 [EFV, efavirenz, reference compound] .
output: 30

====

Subject Of Test: HIV-1 recombinant integrase (rIN) (Human immunodeficiency virus type 1 group M subtype B)
Construct: HIV-1 recombinant integrase (rIN); made in house
Protocol Text: Integrase (rIN) enzyme assays: 3'-processing and strand transfer
Type: biochemical
Run Conditions: read-out: IC50 Strand-transfer; recombinant HIV-1 integrase
Observable: IC50

>  <Smiles String>
Cc1ccc(S(=O)(=O)Nn2sc3ccccc3c2=O)cc1

>  <Observable>
IC50

>  <Result>
> 30 µM

$$$$

input: Specify measured IC50 for `O=c1c2ccc(Cl)cc2sn1NS(=O)(=O)c1ccccc1Cl` .
output: > 30 µM
